The following compounds are listed with their measured IC50 values.
# assayed_target: PDGFRA D842V (Homo sapiens, UniProt P16234, D842V)
# Sequence (P16234 24-1089 D842V): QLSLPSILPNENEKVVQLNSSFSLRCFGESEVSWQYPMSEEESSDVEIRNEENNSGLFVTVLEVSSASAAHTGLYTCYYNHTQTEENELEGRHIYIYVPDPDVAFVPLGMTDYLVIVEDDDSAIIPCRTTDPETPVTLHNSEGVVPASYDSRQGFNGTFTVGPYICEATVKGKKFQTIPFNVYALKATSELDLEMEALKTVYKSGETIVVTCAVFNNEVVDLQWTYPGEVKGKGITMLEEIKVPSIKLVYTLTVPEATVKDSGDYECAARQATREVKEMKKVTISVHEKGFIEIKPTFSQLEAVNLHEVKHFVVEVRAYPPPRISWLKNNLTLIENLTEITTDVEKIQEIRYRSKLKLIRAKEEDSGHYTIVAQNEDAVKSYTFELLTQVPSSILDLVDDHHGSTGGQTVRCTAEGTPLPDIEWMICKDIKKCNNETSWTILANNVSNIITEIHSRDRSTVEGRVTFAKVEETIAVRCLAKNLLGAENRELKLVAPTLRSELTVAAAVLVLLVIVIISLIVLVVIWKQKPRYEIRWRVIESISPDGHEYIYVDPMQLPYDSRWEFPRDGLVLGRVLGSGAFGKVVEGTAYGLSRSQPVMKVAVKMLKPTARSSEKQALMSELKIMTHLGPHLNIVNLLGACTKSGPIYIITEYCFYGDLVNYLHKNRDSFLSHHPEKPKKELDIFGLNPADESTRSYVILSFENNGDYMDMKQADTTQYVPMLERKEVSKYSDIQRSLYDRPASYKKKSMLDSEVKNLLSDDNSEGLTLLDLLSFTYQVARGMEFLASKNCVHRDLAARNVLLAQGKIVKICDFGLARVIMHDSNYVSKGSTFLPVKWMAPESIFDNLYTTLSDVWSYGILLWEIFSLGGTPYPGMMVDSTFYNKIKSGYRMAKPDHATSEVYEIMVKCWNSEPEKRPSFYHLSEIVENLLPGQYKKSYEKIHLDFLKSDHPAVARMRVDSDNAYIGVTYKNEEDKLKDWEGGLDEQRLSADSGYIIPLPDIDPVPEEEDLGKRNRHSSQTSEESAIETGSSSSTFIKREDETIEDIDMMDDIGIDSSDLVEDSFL
# run_description: PDGFRA D842V assay at Km (Caliper electrophoretic mobility shift)
# particulars: 15 uM ATP, 25 C, 90 minutes; read-out: PDFGRA D842V

OC1CCC(NCc2cccc(Nc3ncnc(N4CCN(c5ncc(Cc6ccccc6)cn5)CC4)n3)c2)C1 (stereo not drawn); < 1 nM
OC[C@@H](O)c1ccc(Nc2ncnc(N3CCN(c4ncc(Cc5ccccc5)cn4)CC3)n2)cc1 (single isomer, unassigned); < 1 nM
c1ccc(Cc2cnc(N3CCN(c4ncnc(Nc5cnn(C[C@@H]6CNCCO6)c5)n4)CC3)nc2)cc1; < 1 nM
CC(=O)Nc1cccc(Nc2ncnc(N3CCN(c4ncc(Cc5ccccc5)cn4)CC3)n2)c1; < 1 nM
c1ccc(Cc2cnc(N3CCN(c4ncnc(Nc5ccc(O[C@@H]6CCCNC6)cc5)n4)CC3)nc2)cc1; 1.01 to 10 nM
c1ccc(Cc2cnc(N3CCN(c4ncnc(Nc5ccc6c(c5)CNCC6)n4)CC3)nc2)nc1; 1.01 to 10 nM
CC(C)(c1ccccc1)c1cnc(N2CCN(c3ncnc(Nc4ccc(N5CCC[C@@H](O)C5)cc4)n3)CC2)nc1; 1.01 to 10 nM
c1ccc(Cc2cnc(N3CCN(c4ncnc(Nc5cnn(CC6CCCNC6)c5)n4)CC3)nc2)cc1 (stereo not drawn); < 1 nM
CC(C)N1CCc2ccc(Nc3ncnc(N4CCN(c5ncc(Cc6ccccc6)cn5)CC4)n3)cc2C1; < 1 nM
CN1CCN(Cc2cccc(Nc3ncnc(N4CCN(c5ncc(Cc6ccccc6)cn5)CC4)n3)c2)CC1; 1.01 to 10 nM

Lab note: measured IC50 of CN(C)CCCn1cc(Nc2ncnc(N3CCN(c4ncc(Cc5ccccc5)cn4)CC3)n2)cn1 was < 1 nM

// recorded IC50 for O[C@@H]1CCCN(c2ccc(Nc3ncnc(N4CCN(c5ncc(Cc6ccc(F)cc6)cn5)CC4)n3)cc2)C1 : 1.01 to 10 nM

get_value(item= O[C@@H]1CCCN(c2ccc(Nc3ncnc(N4CCN(c5ncc(Cc6ccccc6)cn5)CC4)n3)cc2)C1 , readout=IC50) returns 1.01 to 10 nM

IC50 for Oc1nc(N2CCN(c3ncnc(Nc4cnn(CC5CCNCC5)c4)n3)CC2)ncc1Cc1ccccc1 is < 1 nM

get_value(item= Oc1nc(N2CCN(c3ncnc(Nc4ccc5c(c4)CNCC5)n3)CC2)ncc1Cc1ccccc1 , readout=IC50) returns < 1 nM

Entry C[C@]1(O)CCCN(c2ccc(Nc3ncnc(N4CCN(c5ncc(Cc6ccccc6)cn5)CC4)n3)cc2)C1 (single isomer, unassigned) — recorded IC50 = 1.01 to 10 nM

Just so you know, measured IC50 for CC(C)(O)Cn1cc(Nc2ncnc(N3CCN(c4ncc(Sc5ccc(F)cc5)cn4)CC3)n2)cn1 came out at 1.01 to 10 nM

The measured IC50 associated with c1ccc(Cc2cnc(N3CCN(c4ncnc(Nc5cnn(CC6CCNC6)c5)n4)CC3)nc2)cc1 (stereo not drawn) reads < 1 nM

The reported value for c1ccc(Cc2cnc(N3CCN(c4ncnc(Nc5cccc(C6CCCNC6)c5)n4)CC3)nc2)cc1 (stereo not drawn) in terms of IC50 is < 1 nM

Briefly, IC50 measured for CN1CCN(c2cccc(Nc3ncnc(N4CCN(c5ncc(Cc6ccccc6)cn5)CC4)n3)c2)CC1 : 1.01 to 10 nM

The recorded IC50 for c1ccc(Cc2cnc(N3CCN(c4ncnc(Nc5cnn([C@@H]6CCNC6)c5)n4)CC3)nc2)cc1 (single isomer, unassigned) is < 1 nM

----------
# assayed_target: D816V Kit (Homo sapiens, UniProt P10721, D816V)
# Sequence (P10721 26-976 D816V): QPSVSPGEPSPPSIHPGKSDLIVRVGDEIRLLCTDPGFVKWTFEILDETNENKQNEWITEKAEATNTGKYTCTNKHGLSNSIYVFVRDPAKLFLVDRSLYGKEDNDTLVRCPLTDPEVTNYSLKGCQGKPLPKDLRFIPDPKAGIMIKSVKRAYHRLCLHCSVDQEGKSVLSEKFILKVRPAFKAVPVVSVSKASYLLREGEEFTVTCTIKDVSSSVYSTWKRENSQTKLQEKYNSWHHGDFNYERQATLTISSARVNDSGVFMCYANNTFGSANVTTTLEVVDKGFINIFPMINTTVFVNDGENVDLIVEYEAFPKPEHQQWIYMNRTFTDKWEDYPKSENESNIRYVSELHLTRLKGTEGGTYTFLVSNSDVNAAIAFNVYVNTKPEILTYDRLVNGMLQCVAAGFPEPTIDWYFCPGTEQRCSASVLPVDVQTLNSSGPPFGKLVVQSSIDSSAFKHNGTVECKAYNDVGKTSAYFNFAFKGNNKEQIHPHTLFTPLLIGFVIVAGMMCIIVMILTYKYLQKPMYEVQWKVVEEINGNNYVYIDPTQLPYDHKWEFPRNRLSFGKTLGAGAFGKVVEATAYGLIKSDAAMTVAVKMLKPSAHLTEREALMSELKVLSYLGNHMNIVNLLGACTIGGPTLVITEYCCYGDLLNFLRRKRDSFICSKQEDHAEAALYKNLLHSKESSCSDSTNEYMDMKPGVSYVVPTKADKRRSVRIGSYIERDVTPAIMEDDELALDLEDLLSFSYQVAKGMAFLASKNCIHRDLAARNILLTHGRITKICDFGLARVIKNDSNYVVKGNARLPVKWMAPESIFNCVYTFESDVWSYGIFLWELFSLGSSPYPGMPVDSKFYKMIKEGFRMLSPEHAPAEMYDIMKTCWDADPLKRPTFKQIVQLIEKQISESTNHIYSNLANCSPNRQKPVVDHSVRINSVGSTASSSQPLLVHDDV
# run_description: Kit D816V assay at Km (Caliper electrophoretic mobility shift)
# particulars: 15 uM ATP, 25 C, 90 minutes
# Text: In order to assess the activity of chemical compounds against the relevant kinase of interest, the Caliper LifeSciences electrophoretic mobility shift technology platform is used. […] At the end of the reaction, the mix of phosphorylated (product) and non-phosphorylated (substrate) peptides are passed through the microfluidic system of the Caliper EZ Reader 2, under an applied potential difference. […] As the pools pass a LEDS within the instrument, these pools are detected and resolved as separate peaks. […]
readout_name: IC50

Guide cases for IC50, answers given:
CN1CCC(CCNc2ncnc(N3CCN(c4ncc(Cc5ccccc5)cn4)CC3)n2)CC1 [Compound 35]; > 100 nM
c1ccc(Cc2cnc(N3CCN(c4ncnc(Nc5ccc6c(c5)NCCC6)n4)CC3)nc2)cc1 [Compound 42]; 1.01 to 10 nM
CC(C)(c1ccccc1)c1cnc(N2CCN(c3ncnc(Nc4cnn(C[C@@H]5CNCCO5)c4)n3)CC2)nc1 [Compound 244]; < 1 nM

--- query ---
get_value(item= CN1CCC[C@H]1COc1ccc(Nc2ncnc(N3CCN(c4ncc(Cc5ccccc5)c(N)n4)CC3)n2)cc1 [Compound 266] , readout=IC50) returns < 1 nM

----------
Listed here: compounds with reported IC50 for wild type Kit (Homo sapiens, UniProt P10721).

CC(=O)c1cccc(Nc2ncnc(N3CCN(c4ncc(Cc5ccccc5)cn4)CC3)n2)c1; 100 to 1000 nM
c1ccc(Cc2cnc(N3CCN(c4ncnc(Nc5cc[nH]n5)n4)CC3)nc2)cc1; 100 to 1000 nM

As a next step, examine the compound that follows.
IC50 on wild type Kit (Homo sapiens, UniProt P10721) for CN(C)[C@@H]1CCN(Cc2cccc(Nc3ncnc(N4CCN(c5ncc(Cc6ccccc6)cn5)CC4)n3)c2)C1 is < 10 nM

----------
# assayed_target: Kit D816V (HMC1.2 cells, Kit V560G and D816V) (Homo sapiens, UniProt P10721, D816V/V560G)
# Construct: endogenous in cells
# Sequence (P10721 26-976 V560G/D816V): as the sequence (P10721 26-976 D816V) above, with V535G counted along it
# run_description: HMC1.2 autophosphorylation assay (AlphaLISA, phospho-Y719 c-Kit)
# particulars: Kit autophosphorylation at tyrosine 719, 90 minutes, read-out: Cellular Activity
readout_name: IC50

Solved entries:
CC(C)(c1ccccc1)c1cnc(N2CCN(c3ncnc(Nc4ccc([C@H](O)CO)cc4)n3)CC2)nc1; < 10 nM
OC1(c2ccc(Nc3ncnc(N4CCN(c5ncc(Cc6ccccc6)cn5)CC4)n3)cc2)COC1; 10 to 100 nM
c1ccc(Cc2cnc(N3CCN(c4ncnc(Nc5ccccc5)n4)CC3)nc2)cc1; 1000 to 10000 nM
OCC(O)c1ccc(Nc2ncnc(N3CCN(c4ncc(Cc5ccccc5)cn4)CC3)n2)cc1 (stereo not drawn); 10 to 100 nM
c1ccc(Cc2cnc(N3CCN(c4ncnc(Nc5cnn(C[C@@H]6COCCO6)c5)n4)CC3)nc2)cc1; 10 to 100 nM
Nc1nc(N2CCN(c3ncnc(Nc4ccc5c(c4)CN(CCO)CC5)n3)CC2)ncc1Cc1ccccc1; < 10 nM
C[C@H](O)Cn1cc(Nc2ncnc(N3CCN(c4ncc(Sc5ccccc5F)cn4)CC3)n2)cn1; 10 to 100 nM
Fc1ccc(Cc2cnc(N3CCN(c4ncnc(Nc5cnn(C[C@@H]6CNCCO6)c5)n4)CC3)nc2)cc1; 10 to 100 nM
CN1CCC[C@@H]1COc1ccc(Nc2ncnc(N3CCN(c4ncc(Cc5ccccc5)c(N)n4)CC3)n2)cc1; < 10 nM
CC(C)(c1ccccc1)c1cnc(N2CCN(c3ncnc(Nc4ccc(N5CCC[C@@H](O)C5)cc4)n3)CC2)nc1; 10 to 100 nM

IC50 measured on CC(=O)c1cccc(Nc2ncnc(N3CCN(c4ncc(Cc5ccccc5)cn4)CC3)n2)c1 = 100 to 1000 nM

The recorded IC50 for O[C@@H]1CCN(c2ccc(Nc3ncnc(N4CCN(c5ncc(Cc6ccccc6)cn5)CC4)n3)cc2)C1 is 10 to 100 nM

For reference, reported IC50 for O[C@@H]1CCCN(c2ccc(Nc3ncnc(N4CCN(c5ncc(Cc6ccccc6)cn5)CC4)n3)cc2)C1 stands at 10 to 100 nM

GET /value?item= c1ccc(Cc2cnc(N3CCN(c4ncnc(Nc5ccc6c(c5)CNCC65CC5)n4)CC3)nc2)cc1 &field=IC50 returns 10 to 100 nM

The molecule listed as CN(C)C1CCN(Cc2cccc(Nc3ncnc(N4CCN(c5ncc(Cc6ccccc6)cn5)CC4)n3)c2)C1 (stereo not drawn) has a reported IC50 of 10 to 100 nM

----------
This listing pairs molecules with measured IC50.
# assayed_target: Kit D816V (HMC1.2 cells, Kit V560G and D816V) (Homo sapiens, UniProt P10721, D816V/V560G)
# Construct: endogenous in cells
# run_description: HMC1.2 autophosphorylation assay (AlphaLISA, phospho-Y719 c-Kit)
# particulars: Kit autophosphorylation at tyrosine 719, 90 minutes, read-out: Cellular Activity

c1cncc(Cc2cnc(N3CCN(c4ncnc(Nc5ccc6c(c5)CNCC6)n4)CC3)nc2)c1; 0.01 to 0.1 µM
CN(C)[C@@H]1CCN(Cc2cccc(Nc3ncnc(N4CCN(c5ncc(Cc6ccccc6)cn5)CC4)n3)c2)C1; 0.01 to 0.1 µM
C[C@@H]1CN(c2ncnc(Nc3ccc(N4CCC[C@@H](O)C4)cc3)n2)CCN1c1ncc(Cc2ccccc2)cn1; 0.01 to 0.1 µM
CP(C)(=O)c1ccc(Nc2ncnc(N3CCN(c4ncc(Cc5ccccc5)cn4)CC3)n2)cc1; 0.1 to 1 µM
Nc1nc(N2CCN(c3ncnc(Nc4ccc(N5CCC[C@@H](O)C5)cc4)n3)CC2)ncc1Cc1ccccc1; 0.01 to 0.1 µM
CN1CCO[C@H](Cn2cc(Nc3ncnc(N4CCN(c5ncc(Cc6ccccc6)cn5)CC4)n3)cn2)C1; 0.01 to 0.1 µM

Item: c1ccc(Nc2cnc(N3CCN(c4ncnc(Nc5ccc(N6CCOCC6)cc5)n4)CC3)nc2)cc1 | IC50: 0.1 to 1 µM

Origin of measurements: patent US9334263B2
